B1: C10orf62 (parent)
chain: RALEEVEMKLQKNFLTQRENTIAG

Variants of: B1
Experiment: protein stability index of a GFP-peptide fusion (GPS, HEK-293T) (PSI 1-6); higher = more stable;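 also: lentivirally expressed fusions sorted by FACS into six bins by GFP to DsRed ratio, PSI derived from sequencing read proportions per bin multiplied by bin number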
Conditions: c terminus: a fixed tail appended
quantityKind: protein stability index
// no unit string in output, number only

Example cases with answers are listed next.
protein stability index for "L15G" ?
3.9

protein stability index for "L3F" ?
4.04

protein stability index for "L15N" ?
3.99

protein stability index for "N13P" ?
3.96

Continuing:
protein stability index for "R18N" ?
4.05
